biological target: EP4 receptor (PTGER4) (Homo sapiens, UniProt P35408); construct: expressed in transfected cells; host or cells: PathHunter β-Arrestin PTGER4 (EP4) cell line; assay: PathHunter beta-arrestin cell-based prostanoid receptor assay, EP4; conditions: Run 2, GP1681 starting concentration 500 μM; β-Arrestin
Sequence (P35408 whole entry): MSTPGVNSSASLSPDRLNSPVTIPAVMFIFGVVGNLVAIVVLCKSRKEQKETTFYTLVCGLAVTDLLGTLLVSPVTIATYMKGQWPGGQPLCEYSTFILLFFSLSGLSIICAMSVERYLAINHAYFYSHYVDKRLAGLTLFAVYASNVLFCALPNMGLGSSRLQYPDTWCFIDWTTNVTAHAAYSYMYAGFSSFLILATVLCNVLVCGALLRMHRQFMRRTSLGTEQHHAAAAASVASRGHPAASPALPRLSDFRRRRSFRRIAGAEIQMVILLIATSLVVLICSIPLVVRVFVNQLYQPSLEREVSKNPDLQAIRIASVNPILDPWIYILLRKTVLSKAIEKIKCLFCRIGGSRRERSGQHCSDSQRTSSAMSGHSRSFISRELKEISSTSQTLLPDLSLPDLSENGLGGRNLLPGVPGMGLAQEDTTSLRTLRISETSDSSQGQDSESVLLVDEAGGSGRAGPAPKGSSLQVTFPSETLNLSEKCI
ENDPOINT: pEC50
pEC50 field: float, defined as -log10 of concentration (mol/L).

So for CC#CCC(C)C(O)C=CC1C(O)CC2Oc3c(CCCC(=O)O)cccc3C21 (single isomer, unassigned) , the logged pEC50 turned out to be 4.74

====

Molecular target: EP3 receptor (PTGER3) (Homo sapiens, UniProt P43115)
Construct: host or cells: PathHunter beta-arrestin cell line
Sequence (P43115 1-390): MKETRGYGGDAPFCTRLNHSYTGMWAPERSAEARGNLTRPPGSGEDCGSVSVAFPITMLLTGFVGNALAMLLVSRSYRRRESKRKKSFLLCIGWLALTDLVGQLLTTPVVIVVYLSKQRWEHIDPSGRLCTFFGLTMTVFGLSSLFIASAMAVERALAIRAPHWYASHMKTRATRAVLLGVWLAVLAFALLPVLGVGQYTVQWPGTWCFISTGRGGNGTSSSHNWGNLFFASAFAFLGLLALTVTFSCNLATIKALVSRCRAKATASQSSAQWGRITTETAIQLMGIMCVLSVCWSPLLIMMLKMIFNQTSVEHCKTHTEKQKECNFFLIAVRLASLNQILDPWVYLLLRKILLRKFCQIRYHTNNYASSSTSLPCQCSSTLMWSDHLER
Assay: PathHunter beta-arrestin cell-based prostanoid receptor assay, EP3
Settings: Run 1, GP1681 starting concentration 4 uM; β-Arrestin; curve for GP1681 not fully sigmoidal
ENDPOINT: EC50

So for CC#CCC(C)C(O)C=CC1C(O)CC2Oc3c(CCCC(=O)O)cccc3C21 (single isomer, unassigned) , the logged EC50 turned out to be 1.83 µM

====

target: EP4 receptor (PTGER4) (Homo sapiens); construct: expressed in transfected cells; host or cells: PathHunter β-Arrestin PTGER4 (EP4) cell line; experiment: PathHunter β-Arrestin PTGER4 (EP4) agonist assay, optimisation of cell density and temperature; type: cell-based; conditions: N = 1, 5K 37C; read-out: RC50 (μM) / EC50, agonist
ENDPOINT: EC50 (µM)
Answer format: numeric, µM implied, no suffix.

So for CC#CCC(C)C(O)C=CC1C(O)CC2Oc3c(CCCC(=O)O)cccc3C21 (single isomer, unassigned) , the logged EC50 turned out to be 23.4

====

biological target: TP receptor (TBAX2R) (Homo sapiens); assay: PathHunter beta-arrestin cell-based prostanoid receptor assay, TP; settings: Run 1, GP1681 starting concentration 4 uM; β-Arrestin
Sequence (P21731 whole entry): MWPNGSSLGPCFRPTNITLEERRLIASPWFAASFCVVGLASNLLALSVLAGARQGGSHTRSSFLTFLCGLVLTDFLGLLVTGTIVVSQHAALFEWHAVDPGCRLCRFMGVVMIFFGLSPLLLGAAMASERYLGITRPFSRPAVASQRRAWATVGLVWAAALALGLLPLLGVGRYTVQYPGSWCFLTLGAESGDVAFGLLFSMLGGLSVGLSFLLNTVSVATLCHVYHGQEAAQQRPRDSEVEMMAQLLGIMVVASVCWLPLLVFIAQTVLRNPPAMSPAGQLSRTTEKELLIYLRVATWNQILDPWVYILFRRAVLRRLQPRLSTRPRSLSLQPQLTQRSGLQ
ENDPOINT: EC50 (nM)
Answer format: numeric, nM implied, no suffix.

So for O=C(O)CCC/C=C\C[C@@H]1[C@@H](/C=C/[C@@H](O)COc2ccc(I)cc2)[C@H]2CC[C@@H]1O2 [I-BOP, reference compound] , the logged EC50 turned out to be 32

====

molecular target: EP4 receptor (PTGER4) (Homo sapiens); construct: expressed in transfected cells; host or cells: PathHunter β-Arrestin PTGER4 (EP4) cell line; experiment: PathHunter β-Arrestin PTGER4 (EP4) agonist assay, optimisation of cell density and temperature; format: cell-based; details: N = 1, 7.5K RT; read-out: RC50 (μM) / EC50, agonist
ENDPOINT: EC50 (µM)
Answer format: numeric, µM implied, no suffix.

With EP4 receptor (PTGER4) (Homo sapiens) as the test system, CC#CCC(C)C(O)C=CC1C(O)CC2Oc3c(CCCC(=O)O)cccc3C21 (single isomer, unassigned) [GP1681, esuberaprost] showed EC50 of 14.8

====

Target: EP1 receptor (PTGER1) (Homo sapiens, UniProt P34995)
Construct: host or cells: PathHunter beta-arrestin cell line
Sequence (P34995 whole entry): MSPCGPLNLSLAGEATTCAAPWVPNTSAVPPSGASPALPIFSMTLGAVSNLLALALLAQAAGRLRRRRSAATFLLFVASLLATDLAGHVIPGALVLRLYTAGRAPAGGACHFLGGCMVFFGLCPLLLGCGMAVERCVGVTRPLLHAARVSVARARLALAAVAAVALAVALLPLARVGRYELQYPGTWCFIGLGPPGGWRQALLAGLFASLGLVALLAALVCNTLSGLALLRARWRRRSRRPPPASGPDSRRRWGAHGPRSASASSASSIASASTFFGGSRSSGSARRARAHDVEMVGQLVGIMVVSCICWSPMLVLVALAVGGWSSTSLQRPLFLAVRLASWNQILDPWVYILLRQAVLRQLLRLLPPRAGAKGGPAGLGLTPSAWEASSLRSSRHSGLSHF
Assay: PathHunter beta-arrestin cell-based prostanoid receptor assay, EP1
Conditions: Run 1, GP1681 starting concentration 4 uM; β-Arrestin; curve for GP1681 not fully sigmoidal
Method: DiscoverX cell-based ligand binding assays were performed in the PathHunter beta-arrestin (EP1, EP2, EP3, EP4, FP, IP, and TP receptors) or cAMP Hunter™ (DP receptor) cell lines. […] GP1681 was incubated with cells lines at either 37° C. or room temperature, for 90-180 minutes (temperatures and incubation times are all dependent on established optimized procedures for each receptor cell line) after which cell wells were processed and signal production detected. […]
ENDPOINT: EC50 (nM)
Answer format: numeric, nM implied, no suffix.

CCCCC[C@H](O)/C=C/[C@H]1[C@H](O)CC(=O)[C@@H]1C/C=C\CCCC(=O)O [PGE2, Prostaglandin E2, reference compound]: 4.9

So for CC#CCC(C)C(O)C=CC1C(O)CC2Oc3c(CCCC(=O)O)cccc3C21 (single isomer, unassigned) , the logged EC50 turned out to be 1080

====

target: EP3 receptor (PTGER3) (Homo sapiens); construct: host or cells: PathHunter beta-arrestin cell line; experiment: PathHunter beta-arrestin cell-based prostanoid receptor assay, EP3; conditions: Run 2, GP1681 starting concentration 500 μM; β-Arrestin
ENDPOINT: EC50

With EP3 receptor (PTGER3) (Homo sapiens) as the test system, CC#CCC(C)C(O)C=CC1C(O)CC2Oc3c(CCCC(=O)O)cccc3C21 (single isomer, unassigned) showed EC50 of 5.39 µM

====

Listing: EC50 of selected compounds
molecular target: DP1 receptor (PTGDR) (Homo sapiens, UniProt Q13258); construct: host or cells: cAMP Hunter (DP receptor) cell line; test: cAMP Hunter cell-based prostanoid receptor assay, DP receptor; settings: Run 2, GP1681 starting concentration 500 μM; HitHunter cAMP cell line
Sequence (Q13258 whole entry): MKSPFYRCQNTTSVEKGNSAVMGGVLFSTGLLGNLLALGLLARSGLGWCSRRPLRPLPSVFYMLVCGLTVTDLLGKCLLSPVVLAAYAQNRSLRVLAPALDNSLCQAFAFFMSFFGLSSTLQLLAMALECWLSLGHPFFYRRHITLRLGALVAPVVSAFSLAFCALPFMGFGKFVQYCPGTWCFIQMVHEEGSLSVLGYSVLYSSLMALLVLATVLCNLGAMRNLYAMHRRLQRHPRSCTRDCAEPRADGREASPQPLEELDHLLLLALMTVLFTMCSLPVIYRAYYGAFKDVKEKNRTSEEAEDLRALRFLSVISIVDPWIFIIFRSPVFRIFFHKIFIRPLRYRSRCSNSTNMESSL
Answer format: numeric, nM implied, no suffix.

CC#CCC(C)C(O)C=CC1C(O)CC2Oc3c(CCCC(=O)O)cccc3C21 (single isomer, unassigned): 1330

# next compound below
So for CCCCC[C@H](O)/C=C/[C@H]1C(=O)C[C@H](O)[C@@H]1C/C=C\CCCC(=O)O [PDG2, PGD2, reference compound] , the logged EC50 turned out to be 1.2

====

molecular target: EP4 receptor (PTGER4) (Homo sapiens, UniProt P35408); construct: expressed in transfected cells; host or cells: PathHunter β-Arrestin PTGER4 (EP4) cell line; assay: PathHunter β-Arrestin PTGER4 (EP4) antagonist assay against GP1681 at EC80; format: cell-based; settings: 5K 37C; challenge with GP1681 at EC80 (45 μM); read-out: RC50 (μM) / IC50, antagonist
Listing: IC50 of selected compounds
Answer format: numeric, µM implied, no suffix.

CCOc1c2c(c(OCC)c3ccccc13)C(=O)N(c1ccc(CC(=O)NS(=O)(=O)c3ccccc3)cc1)C2 [GW 627368X]: 0.0442

So for CCCCc1nn(-c2ccccc2C(F)(F)F)c(=O)n1Cc1ccc(-c2ccccc2S(=O)(=O)NC(=O)c2sccc2C)cc1 [L-161,982] , the logged IC50 turned out to be 0.0339

Entry source: patent US12042503B2
